- assay_overview: Solubility as a function of pH at 20° C.
- Type: physicochemical
- study_conditions: aqueous buffer, thermodynamic from solid, phosphate-NaOH buffer pH 12, pH of solution 11.9, anhydrous free base
observation_type: solubility (µg/mL)
Form entry: value (µg/mL) — number only.

Entry COCCc1ccc(-c2c(C)nc3c(N4CCOCC4)ccnn23)cn1 [Compound 1] : reported solubility = ? 8

---

- assay_overview: Solubility as a function of pH at 20° C.
- Format: physicochemical
- study_conditions: aqueous buffer, thermodynamic from solid, phosphate-NaOH buffer pH 12, pH of solution 11.2, phosphate salt, read-out: Solubility (mg/mL) of compound 1d
observation_type: solubility (mg/mL)
Respond numerically; units are mg/mL and should not be typed.

Any idea what solubility was measured for COCCc1ccc(-c2c(C)nc3c(N4CCOCC4)ccnn23)cn1.O=P(O)(O)O ? 0.1

// data source = patent US8716282B2
